# protocolNotes: protein stability index of a GFP-peptide fusion (GPS, HEK-293T) (PSI 1-6); higher = more stable;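 further: 24-mer peptide tiles fused after GFP, lentivirally expressed, FACS-sorted into six equal bins by GFP/DsRed ratio, decoded by Illumina sequencing, PSI is the read-weighted mean bin number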
# conditionContext: treatment: MLN4924 1 uM, 8 h; c terminus: a fixed tail appended
Binary classification by protein stability index, with 4 as an inclusive lower bound for Criterion met; all other cases are Criterion not met.

// below: answered sequences
[
  {
    "sequenceText": "QLDIASQSLDQEILLKVKTEIEEE [BCL2L13]",
    "label": "Criterion met"
  },
  {
    "sequenceText": "PLLSPLLASRNPCPWHYLHLSGSH [RSPH3]",
    "label": "Criterion not met"
  }
]

Request: Check the entry VGIFHLMQIAVPCAFLLLRLLVGL [TMEM175] : does protein stability index equal or exceed 4?
Result: Criterion not met

Request: protein stability index >= 4 for VWTSPRRLVELAGQSLLKDEALAI [PRAME] ?
Result: Criterion not met

* * *

# protocolNotes: protein stability index of a GFP-peptide fusion (GPS, HEK-293T) (PSI 1-6); higher = more stable
# conditionContext: treatment: DMSO; c terminus: a fixed tail appended
endpoint: protein stability index
One number for each entry.

Worked cases, answers included:
[
  {
    "sequenceText": "SLDKVQRSLGPRAPSLRRHVLIHN [SERTAD3]",
    "protein stability index": 3.02
  },
  {
    "sequenceText": "SLAHCRHDGEDVACPQGGVQYGAG [LOXL2]",
    "protein stability index": 4.65
  },
  {
    "sequenceText": "KTPLHQKHAAFVTPDQKYSMDNTP [MYBL2]",
    "protein stability index": 4.14
  },
  {
    "sequenceText": "PRMCRYVRERDRLGNEYPKLHYPE [CDC25A]",
    "protein stability index": 3.08
  },
  {
    "sequenceText": "LATASYDTRVYIWDPHNGDILMEF [WSB1]",
    "protein stability index": 2.85
  }
]

Parameter requested: protein stability index. Apply to each item below.
1. LSTHNWTYWQCGQYLGVGPGAHGR [RSAD1]
2. LKGVKQACCEFLESQLDPSNCLGI [KLHL12]
3. FSIPPTNHEIMPGGSVNITCVAVG [PTPRD]
4. EKTFWKEEKSFWEMEKSFREEEKT [CCDC70]
5. ADSLASKVTRLKSLALDIDRDAED [BET1L]
6. RVSAMRDYRGPDCRYLNFTKGEEI [MIA2]
7. PVEEPEPKPDRLLVLKVLWNDFLM [SLC19A2]

Result:
[2.31, 2.66, 2.22, 4.62, 5.3, 3.02, 2.21]

Hey, quick one: what's protein stability index for each of these?
1. KKEESGRERKKNWGGQEDREPAGR [PBXIP1]
2. QPKCDNTARAHPAKARDLYKGRQL [SMOC2]
3. VFYLWSAIEIFRYSFYMLTCIDMD [HACD3]
4. EVNVLNDMRDTPLHRAAFTGRKIC [OSBPL1A]
5. PTTGYRRLLRFSSQIHNNGQSDFR [LOXL2]
6. QHLKYKEHPEALSCLLLQLRREKP [INTS3]

Result:
[5.16, 4.26, 3.13, 3.19, 3.03, 2.68]

Working through the 7 sequences below one at a time, give protein stability index for each.
1. LLLSHIHASSYISPEKEEQYIAQF [PRAME]
2. LPAGPLPAPLLVLCPSRAELDRWL [PLEKHN1]
3. NFSAAKSLLNKKADGVKPQTNSTK [CAMK2B]
4. PNLASDSDLSRRSSSTMSKSEYME [KCNA1]
5. LRGKECCINRFQQVESRWGYSGTS [BTBD1]
6. MEAADASRSNGSSPEARDARSPSG [TRIM29]
7. TTGSKELDKLLQGGIETGSITEMF [RAD51]

Result:
1. 2.42
2. 2.81
3. 4.98
4. 5.16
5. 2.47
6. 5.29
7. 3.51

Batch request: protein stability index per item, same order as input.
1. EFDSPHEDIVFETDHILESLYRDI [STX11]
2. TMLKAMFSGRMEVLTDSEGWILID [KCTD10]

Result:
1: 3.59; 2: 2.51

* * *

Exercise: state measured protein stability index for each of the sequences provided.
# protocolNotes: protein stability index of a GFP-peptide fusion (GPS, HEK-293T) (PSI 1-6); higher = more stable
# conditionContext: treatment: DMSO; c terminus: a fixed tail appended
Numbers only.

Answered cases to consult:
[
  {
    "sequenceText": "VLGIPLTLVMFQSLGERMNTFVRY [KCNK9]",
    "protein stability index": 3.24
  },
  {
    "sequenceText": "LPELFHKIGVGAMTWSPLACGIVS [KCNAB2]",
    "protein stability index": 2.74
  },
  {
    "sequenceText": "KTLRVWDLKDDGNMMKVLRGHQNW [WSB1]",
    "protein stability index": 2.66
  },
  {
    "sequenceText": "LREMLSKKHAAYAWPFYKPVDAEA [BRD3]",
    "protein stability index": 2.54
  },
  {
    "sequenceText": "NSALKDKEDQFGRTPLMYCVLADR [INVS]",
    "protein stability index": 3.37
  }
]

Could you report protein stability index for every entry in the following list?
1. CETVTCCLFSERDAAGAPRDASDP [SMAD6]
2. LDVRARLECEINTYRSLLESEDCK [KRT33B]
3. LQGKDAWLPLHYAAWQGHLPIVKL [RIPK4]
4. KNNLSFIETSALDSTNVEEAFKNI [RAB11B]
5. CLRKYGNANVWKYFTDLFDYLPLT [PPP2CA]

Result:
1. 4.49
2. 4.23
3. 2.21
4. 4.33
5. 2.4

Request: Report protein stability index for ALKDSLRPKLSEEQQRIIAILLDA [VDR] please.
Result: 2.44

* * *

Assignment: determine reported protein stability index for the given sequences.
# protocolNotes: protein stability index of a GFP-peptide fusion (GPS, HEK-293T) (PSI 1-6); higher = more stable
# conditionContext: treatment: DMSO; c terminus: a fixed tail appended

Completed entries (count: 6):
[
  {
    "sequenceText": "SMTAGVSEREANDALNAYVCKGLP [INTS3]",
    "val": 4.37
  },
  {
    "sequenceText": "LPDPREACGSSSYVASIVDGGESR [RBMY1A1]",
    "val": 4.74
  },
  {
    "sequenceText": "EMEVMRRQLYAVNRRLRALEEQGA [FATE1]",
    "val": 3.65
  },
  {
    "sequenceText": "SEKGKPYVDIQGLTASTMEILLDF [KLHL12]",
    "val": 2.06
  },
  {
    "sequenceText": "PFYTSRIDEVLLHQDVDLVCINLP [GFOD1]",
    "val": 2.08
  },
  {
    "sequenceText": "TAYIRVKVDGPRSPSYGRSRSRSR [SRSF1]",
    "val": 3.75
  }
]

Go through the items and report each one's protein stability index.
1. KNGQGFALVYSITAQSTFNDLQDL [RAP1B]
2. KQYKAVVYSNTIQSIIAIIRAMGR [GNAI1]
3. LALKTPPRVLTLSERPLDFLDLER [MFF]

Result:
2.23
1.95
2.96

Take each entry in turn and give its protein stability index.
1. ASGLGLEITTQFLIYASYFALIAV [SLC19A2]
2. DGKRVIVVFHCEFSSERGPRMCRY [CDC25A]
3. LAIQARKRRPKREKHPKKPEPQQK [SRPK2]
4. VQFHRHHGQEGSILVTKVEEPSKY [GMPPB]

Result:
3.26
2.64
4.32
3.45

Hi team, please reply with protein stability index for each item in this list.
1. LPCFNGRVVSWLVSAEGSHPDPAP [DVL3]
2. PNYTMEGERPEEGVAGGLNRNQGL [TCF25]
3. LVMPIEDQLTQIMRTGQNTWESKN [PCMTD1]
4. GHSQEKTHSREKSSQESGEEAGSQ [CHGB]
5. GRPGIVAWTLINLSFAAKQRELHS [DHCR7]

Result:
2.64
5.22
3.13
5.52
2.81

* * *

# protocolNotes: protein stability index of a GFP-peptide fusion (GPS, HEK-293T) (PSI 1-6); higher = more stable
# conditionContext: treatment: MLN4924 1 uM, 8 h; c terminus: a fixed tail appended
Values of protein stability index greater than or equal to 4 map to 1.0; values below map to 0.0.

Would you please look over these solved cases?
[
  {
    "sequenceText": "HTRSWAVLKLLLLLLLFGVAGGLV [LRRC59]",
    "label": 0.0
  },
  {
    "sequenceText": "CCPTSREAAVEALELLGATYVDKK [FEM1A]",
    "label": 1.0
  },
  {
    "sequenceText": "NQNSWGTGEDVKVILKNSQGEEVA [LMNB1]",
    "label": 1.0
  },
  {
    "sequenceText": "DDVLPWRRTAENKLDTKYPYVCHA [DCTD]",
    "label": 0.0
  },
  {
    "sequenceText": "AQLRDAVQSLQLSPRTRGSWSQPQ [RASAL3]",
    "label": 0.0
  },
  {
    "sequenceText": "FLQYYYQSGCLYRLRALGERHTMD [TMEM120A]",
    "label": 0.0
  },
  {
    "sequenceText": "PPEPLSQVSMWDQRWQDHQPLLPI [APBB1IP]",
    "label": 0.0
  },
  {
    "sequenceText": "EGYAHLTHLLMGLASGRIILILEG [HDAC6]",
    "label": 0.0
  }
]

Request: Check the entry CETVTCCLFSERDAAGAPRDASDP [SMAD6] : does protein stability index equal or exceed 4?
Result: 1.0

Request: Hi, just wondering whether EDNLSLVCLPRSEDDDCDDDDDDD [DRICH1] shows protein stability index of 4 or higher.
Result: 1.0

Request: Is protein stability index for GPPGRSIGGAAPSLGALDLLGPAT [SERTAD1] at or above 4?
Result: 0.0

Request: Tell me whether protein stability index is at least 4 here: AMVEFVKLLNRCCHLFSTYVASHK [ACBD3]
Result: 0.0
